# Experiment Summary: Pharmacokinetic studies in mice
# Type: in vivo, mouse
# Measurement Parameters: mouse plasma; intravenous 2 mg/kg in 75% PEG 300+25% D5W
Quantity Name: Vd (L/kg)
One number for each entry, in L/kg.

Solved cases (2 shown):
> print(dat)
                            smiles.notation  quantity.name  measurement.units  quantitative.readout
1  C=CC(=O)N1CCN(c2nccnc2Nc2ccc(C(F)(F)F)cc2)CC1             Vd               L/kg                     7
2  C=CC(=O)N1CCC(c2nccnc2Oc2ccc(C(F)(F)F)nc2)CC1             Vd               L/kg                  1.73

With those in mind, consider the next compound.
Ask: Suppose we examine the compound `C=CC(=O)N1CCN(c2nccnc2Nc2ccc(C(F)(F)F)cn2)CC1` ; what Vd value has been reported?
Result: 1.8

All values here come from patent US20250206722A1.
